Test system: primary rat microglia
stated_conditions: rat
Counter-ions that a name gives are not always drawn.
Known Fibrin % cell toxicity of a selection of compounds

compound	Fibrin % cell toxicity [%]
O=C(NCC(O)CO)c1c(I)c(C(=O)NCC(O)CO)c(I)c(N(CCO)C(=O)CO)c1I (stereo not drawn)	1
Nc1ccc(S(=O)(=O)Nc2ncccn2)cc1	0
CC[C@]1(O)C[C@@H]2CN(CCc3c([nH]c4ccccc34)[C@@](C(=O)OC)(c3cc4c(cc3OC)N(C)[C@H]3[C@@](O)(C(=O)OC)[C@H](OC(C)=O)[C@]5(CC)C=CCN6CC[C@]43[C@@H]65)C2)C1 [Vinblastine sulfate, reference compound]	2
O=C1CCC(N2C(=O)c3ccccc3C2=O)C(=O)N1 (stereo not drawn) [Thalidomide]	0
NNCCc1ccccc1	1
CC(C)OC(=O)C(C)(C)Oc1ccc(C(=O)c2ccc(Cl)cc2)cc1 [Fenofibrate]	1
Sc1ncnc2nc[nH]c12	0
O=C1CN(/N=C/c2ccc([N+](=O)[O-])o2)C(=O)N1	1
CC[C@H](C)C(=O)O[C@H]1C[C@@H](C)C=C2C=C[C@H](C)[C@H](CC[C@@H]3C[C@@H](O)CC(=O)O3)[C@H]21	3
Oc1ccc(Cl)cc1	0
COc1ccc(OC)c(C(O)CNC(=O)CN)c1 (stereo not drawn) [Midodrine hydrochloride, reference compound]	3
Cc1[nH]c(=O)c(C#N)cc1-c1ccncc1	0
CN[C@H](CC(C)C)C(=O)N[C@H]1C(=O)N[C@@H](CC(N)=O)C(=O)N[C@H]2C(=O)N[C@H]3C(=O)N[C@H](C(=O)N[C@H](C(=O)O)c4cc(O)cc(O)c4-c4cc3ccc4O)[C@H](O)c3ccc(c(Cl)c3)Oc3cc2cc(c3O[C@@H]2O[C@H](CO)[C@@H](O)[C@H](O)[C@H]2O[C@H]2C[C@](C)(N)[C@H](O)[C@H](C)O2)Oc2ccc(cc2Cl)[C@H]1O [Vancomycin Hydrochloride]	1
O=C1CCc2cc(OCCCCc3nnnn3C3CCCCC3)ccc2N1	1
O=c1[nH]c(=O)n(Cl)c(=O)n1Cl	1

* * *

// LPS % cell toxicity lookup, one value per entry
Test system: primary rat microglia
stated_conditions: rat
Where a name gives a salt, the structure may show the parent alone.
experimental_readout: LPS % cell toxicity (%)

compound	tested_system	value
C1CCN2C[C@@H]3C[C@@H](CN4CCCC[C@@H]34)[C@H]2C1 [Sparteine Sulfate]	primary rat microglia	0
O=C1c2c(O)cccc2C([C@@H]2O[C@H](CO)[C@@H](O)[C@H](O)[C@H]2O)c2cc(CO)cc(O)c21 (stereo partly shown)	primary rat microglia	0
N[C@@H](Cc1c[nH]c2ccccc12)C(=O)O	primary rat microglia	0
CC(=O)c1ccc2c(c1)N(CCCN(C)C)c1ccccc1S2	primary rat microglia	1
CC(O)Cn1cnc2c1c(=O)n(C)c(=O)n2C (stereo not shown)	primary rat microglia	0
CC[C@]1(O)C[C@H]2CN(CCc3c([nH]c4ccccc34)[C@@](C(=O)OC)(c3cc4c(cc3OC)N(C=O)[C@H]3[C@@](O)(C(=O)OC)[C@H](OC(C)=O)[C@]5(CC)C=CCN6CC[C@]43[C@@H]65)C2)C1 [Vincristine]	primary rat microglia	10
C[C@@H]1C[C@H]2[C@@H]3CCC4=CC(=O)C=C[C@]4(C)[C@@]3(F)[C@@H](O)C[C@]2(C)[C@@]1(O)C(=O)COP(=O)(O)O [Dexamethasone sodium phosphate, reference compound]	primary rat microglia	3
C[C@]12CCC(=O)C=C1[C@@H]1C[C@@H]1[C@H]1[C@@H]3[C@@H]4C[C@@H]4[C@@]4(CCC(=O)O4)[C@@]3(C)CC[C@@H]12	primary rat microglia	1
CC1(C)O[C@@H]2C[C@H]3[C@@H]4CCC5=CC(=O)C=C[C@]5(C)[C@@]4(F)[C@@H](O)C[C@]3(C)[C@]2(C(=O)CO)O1 [Triamcinolone Acetonide]	primary rat microglia	4
CNCCCC1c2ccccc2C=Cc2ccccc21	primary rat microglia	0
CC1(C)[C@@H](O)CC[C@]2(C)[C@H]3C(=O)C=C4[C@@H]5C[C@@](C)(C(=O)O)CC[C@]5(C)CC[C@@]4(C)[C@]3(C)CC[C@@H]12	primary rat microglia	0
C[C@@H]1C[C@H]2[C@@H]3CCC4=CC(=O)C=C[C@]4(C)[C@@]3(F)[C@@H](O)C[C@]2(C)[C@@]1(O)C(=O)COP(=O)(O)O [Dexamethasone Phosphate]	primary rat microglia	2
N[C@@H](CCC(=O)N[C@@H](CS)C(=O)NCC(=O)O)C(=O)O	primary rat microglia	0
C=CCN=C=S [Allylisothiocyanate]	primary rat microglia	0
O=C(Oc1ccccc1C(=O)O)c1ccccc1O [Salsalate]	primary rat microglia	1
O=C(O)CCNC(=O)c1ccc(/N=N/c2ccc(O)c(C(=O)O)c2)cc1 [Balsalazide]	primary rat microglia	0
CCN1CCN(c2cc3c(cc2F)c(=O)c(C(=O)O)cn3C2CC2)CC1	primary rat microglia	1
CCCC(=O)Nc1ccc(OCC(O)CNC(C)C)c(C(C)=O)c1 (stereo not shown)	primary rat microglia	0
C=C[C@H]1C[N@@]2CC[C@H]1C[C@H]2[C@H](O)c1ccnc2ccc(OC)cc12 [Quinine Sulfate]	primary rat microglia	1
OCCN1CCN(CCCN2c3ccccc3Sc3ccc(C(F)(F)F)cc32)CC1	primary rat microglia	0
Cc1onc(-c2c(Cl)cccc2Cl)c1C(=O)N[C@@H]1C(=O)N2[C@@H]1SC(C)(C)[C@@H]2C(=O)O	primary rat microglia	0
CN(C)CCc1c[nH]c2ccc(Cn3cncn3)cc12	primary rat microglia	0
CO/N=C(\C(=O)N[C@@H]1C(=O)N2C(C(=O)O)=C(COC(N)=O)CS[C@H]12)c1ccco1 [Cefuroxime Sodium]	primary rat microglia	1
NNc1nncc2ccccc12 [Hydralazine]	primary rat microglia	0
O=P1(NCCCl)OCCCN1CCCl (stereo not shown) [Ifosfamide]	primary rat microglia	0
CCOC(=O)[C@H](CCc1ccccc1)N[C@@H](C)C(=O)N1[C@H](C(=O)O)C[C@@H]2CCC[C@@H]21	primary rat microglia	0
COc1ccc(-c2cc(C(F)F)nn2-c2ccc(S(N)(=O)=O)cc2)cc1F	primary rat microglia	0
CCCN[C@H]1CCc2nc(N)sc2C1 [Pramipexole]	primary rat microglia	0
COc1cc([C@@H]2c3cc4c(cc3[C@@H](O[C@@H]3O[C@@H]5CO[C@@H](c6cccs6)O[C@H]5[C@H](O)[C@H]3O)[C@H]3COC(=O)[C@H]23)OCO4)cc(OC)c1O [Teniposide, reference compound]	primary rat microglia	18
C[C@@H]1O[C@@H](OC[C@H]2O[C@@H](Oc3c(-c4ccc(O)c(O)c4)oc4cc(O)cc(O)c4c3=O)[C@H](O)[C@@H](O)[C@@H]2O)[C@H](O)[C@H](O)[C@H]1O	primary rat microglia	0
CN1C(=O)CC(c2ccccc2)C1=O (stereo not shown) [Phensuximide]	primary rat microglia	0

* * *

Readings of LPS % cell toxicity for the listed compounds
Tested on: primary rat microglia
stated_conditions: rat
Structures can show the parent of a compound that is named as a salt.
experimental_readout: LPS % cell toxicity (%)

> print(dat)
                                    compound  measurement.unit  value
 1  O=C(OCc1ccccc1)c1ccccc1 [Benzyl Benzoate]                 %      1
 2  C#C[C@]1(O)CC[C@H]2[C@@H]3CCc4cc(OC5CCCC5)ccc4[C@H]3CC[C@@]21C                 %      0
 3  CC(=O)c1ccc(S(=O)(=O)NC(=O)NC2CCCCC2)cc1 [Acetohexamide]                 %      0
 4  Clc1ccc(COC(Cn2ccnc2)c2ccc(Cl)cc2Cl)c(Cl)c1 (stereo not shown) [Miconazole nitrate, reference compound]                 %      0
 5  CC1=C(/C=C/C(C)=C/C=C/C(C)=C\C(=O)O)C(C)(C)CCC1                 %      1
 6  O=S(=O)(c1cccc2cnccc12)N1CCCNCC1 [Fasudil Hydrochloride]                 %      0
 7  OC(CCN1CCCCC1)(c1ccccc1)C1CCCCC1 (stereo not shown)                 %      1
 8          CC[C@@H]1C(=O)OC[C@@H]1Cc1cncn1C                 %      0
 9  COc1ccc2c(c1)[C@]13CCCC[C@@H]1[C@H](C2)N(C)CC3                 %      0
10                         Nc1ccc(C(=O)O)cc1                 %      1
11                  O=NN(CCCl)C(=O)NC1CCCCC1                 %      1
12  Cn1c(=O)c2c(ncn2CC(O)CO)n(C)c1=O (stereo not shown)                 %      0
13                 CCCc1cc(=O)[nH]c(=S)[nH]1                 %      0
14                           Oc1ccc2ccccc2c1                 %      0
15                           O=C(O)Cc1ccccc1                 %      0
16        O=C(O)CN1C(=O)c2cccc3cccc(c23)C1=O                 %      0
17  Fc1ccc(C(c2ccc(F)cc2)N2CCN(C/C=C/c3ccccc3)CC2)cc1                 %      1
18  COc1ccc(-c2cc(=O)c3c(O)cc(O[C@@H]4O[C@H](CO[C@@H]5O[C@@H](C)[C@H](O)[C@@H](O)[C@H]5O)[C@@H](O)[C@H](O)[C@H]4O)cc3o2)cc1O                 %      0
19  COc1cc2c(c(OC)c1OC)-c1ccc(OC)c(=O)cc1[C@@H](NC(C)=O)CC2 [Colchicine, reference compound]                 %     10
